Hey, just so you know, these numbers are from ChEMBL document CHEMBL5046294.

# TARGET_OR_SYSTEM: Kappa-type opioid receptor (Mus musculus)
# ASSAY_INFO: Binding affinity to mouse kappa opioid receptor expressed in CHO cells in presence of U50488 incubated for 1.5 hrs by competitive radioligand binding assay
ASSAY_METRIC: pKi
Scale: negative log10 of molar concentration, which is what pKi denotes.

Consider the following illustrative entries.
O=C(N[C@H]1CC[C@@]2(O)[C@H]3Cc4ccc(O)c5c4[C@@]2(CCN3CC2CC2)[C@H]1O5)c1cn[nH]c1; 8.33
O=C(N[C@H]1CC[C@@]2(O)[C@H]3Cc4ccc(O)c5c4[C@@]2(CCN3CC2CC2)[C@H]1O5)c1ncc[nH]1; 8.75
O=C(Cc1cc[nH]n1)N[C@H]1CC[C@@]2(O)[C@H]3Cc4ccc(O)c5c4[C@@]2(CCN3CC2CC2)[C@H]1O5; 6.81
O=C(Cc1cn[nH]c1)N[C@H]1CC[C@@]2(O)[C@H]3Cc4ccc(O)c5c4[C@@]2(CCN3CC2CC2)[C@H]1O5; 6.98
O=C(CCc1ncc[nH]1)N[C@@H]1CC[C@@]2(O)[C@H]3Cc4ccc(O)c5c4[C@@]2(CCN3CC2CC2)[C@H]1O5; 9.24

### Prompt Returns the measured pKi for the input compound. Input: "O=C(Cc1cn[nH]c1)N[C@@H]1CC[C@@]2(O)[C@H]3Cc4ccc(O)c5c4[C@@]2(CCN3CC2CC2)[C@H]1O5"
### Response 7.86
